Reference source for all entries: patent US20250276075A1

- Test system: Axl (UniProt P30530)
- Sequence (P30530 26-451 limits assumed): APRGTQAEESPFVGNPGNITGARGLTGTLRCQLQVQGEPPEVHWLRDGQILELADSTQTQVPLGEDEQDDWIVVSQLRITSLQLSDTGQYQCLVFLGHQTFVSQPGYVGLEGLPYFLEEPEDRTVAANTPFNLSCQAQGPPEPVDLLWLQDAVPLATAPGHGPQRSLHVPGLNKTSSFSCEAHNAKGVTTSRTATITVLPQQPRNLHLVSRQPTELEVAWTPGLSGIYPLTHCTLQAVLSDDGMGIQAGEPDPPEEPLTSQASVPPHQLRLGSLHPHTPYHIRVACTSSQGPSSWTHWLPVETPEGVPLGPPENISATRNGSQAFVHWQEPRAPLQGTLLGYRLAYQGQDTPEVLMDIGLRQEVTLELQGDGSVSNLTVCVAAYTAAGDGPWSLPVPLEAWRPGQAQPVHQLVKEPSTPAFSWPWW
- Experiment description: ELISA, 1:3 dilution
Give Criterion met when the value for Affinity ELISA CPE mutant ratio (1:3, pH 6.0/7.4) is at least 2. Give Criterion not met when it is less.

[[record]]
binder = "HC-T030A (antibody, V domains shown) VH: EVQLVQSGAEVKKPGATVKISCKVSGYSFAGHTMNWIRQPPGKGLEWIGLIKPSNGGTSYNQKFKGRVTISADKSISTAYLQWSSLKASDTAMYYCAHGHYESYFAMDYWGQGTLVTVSS VL: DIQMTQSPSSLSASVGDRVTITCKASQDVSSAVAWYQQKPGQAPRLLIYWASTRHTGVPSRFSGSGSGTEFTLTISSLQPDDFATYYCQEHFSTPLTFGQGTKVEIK"
label_value = "Criterion not met"

[[record]]
binder = "HC-E102G (antibody, V domains shown) VH: EVQLVQSGAEVKKPGATVKISCKVSGYSFTGHTMNWIRQPPGKGLEWIGLIKPSNGGTSYNQKFKGRVTISADKSISTAYLQWSSLKASDTAMYYCAHGHYGSYFAMDYWGQGTLVTVSS VL: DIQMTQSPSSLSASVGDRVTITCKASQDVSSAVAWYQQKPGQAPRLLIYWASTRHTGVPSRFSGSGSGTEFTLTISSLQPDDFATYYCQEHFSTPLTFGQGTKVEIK"
label_value = "Criterion not met"

[[record]]
binder = "LC-A051N (antibody, V domains shown) VH: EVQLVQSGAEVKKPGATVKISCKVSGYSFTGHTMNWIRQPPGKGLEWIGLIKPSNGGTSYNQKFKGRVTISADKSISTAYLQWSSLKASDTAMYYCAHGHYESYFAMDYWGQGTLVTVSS VL: DIQMTQSPSSLSASVGDRVTITCKASQDVSSAVAWYQQKPGQAPRLLIYWNSTRHTGVPSRFSGSGSGTEFTLTISSLQPDDFATYYCQEHFSTPLTFGQGTKVEIK"
label_value = "Criterion not met"

[[record]]
binder = "HC-W110L (antibody, V domains shown) VH: EVQLVQSGAEVKKPGATVKISCKVSGYSFTGHTMNWIRQPPGKGLEWIGLIKPSNGGTSYNQKFKGRVTISADKSISTAYLQWSSLKASDTAMYYCAHGHYESYFAMDYLGQGTLVTVSS VL: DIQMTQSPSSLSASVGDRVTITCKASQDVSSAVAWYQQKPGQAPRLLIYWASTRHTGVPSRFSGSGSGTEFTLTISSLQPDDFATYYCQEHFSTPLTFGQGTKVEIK"
label_value = "Criterion met"

[[record]]
binder = "HC-S059I (antibody, V domains shown) VH: EVQLVQSGAEVKKPGATVKISCKVSGYSFTGHTMNWIRQPPGKGLEWIGLIKPSNGGTIYNQKFKGRVTISADKSISTAYLQWSSLKASDTAMYYCAHGHYESYFAMDYWGQGTLVTVSS VL: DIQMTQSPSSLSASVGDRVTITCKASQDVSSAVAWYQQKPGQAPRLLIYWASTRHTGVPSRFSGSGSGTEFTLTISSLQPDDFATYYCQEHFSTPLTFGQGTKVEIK"
label_value = "Criterion met"

[[record]]
binder = "LC-P095E (antibody, V domains shown) VH: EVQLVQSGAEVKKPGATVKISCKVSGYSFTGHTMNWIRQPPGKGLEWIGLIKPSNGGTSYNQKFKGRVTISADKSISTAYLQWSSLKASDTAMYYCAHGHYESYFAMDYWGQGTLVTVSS VL: DIQMTQSPSSLSASVGDRVTITCKASQDVSSAVAWYQQKPGQAPRLLIYWASTRHTGVPSRFSGSGSGTEFTLTISSLQPDDFATYYCQEHFSTELTFGQGTKVEIK"
label_value = "Criterion met"

[[record]]
binder = "HC-H100W (antibody, V domains shown) VH: EVQLVQSGAEVKKPGATVKISCKVSGYSFTGHTMNWIRQPPGKGLEWIGLIKPSNGGTSYNQKFKGRVTISADKSISTAYLQWSSLKASDTAMYYCAHGWYESYFAMDYWGQGTLVTVSS VL: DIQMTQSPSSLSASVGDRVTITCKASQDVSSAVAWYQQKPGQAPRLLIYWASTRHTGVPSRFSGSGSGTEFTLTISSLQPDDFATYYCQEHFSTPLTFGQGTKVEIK"
label_value = "Criterion met"

